Exercise: state measured absorption maximum for each of the molecules provided.
method summary: solvent given as SMILES
condition context: in ClCCl
Give a bare numeral; the unit nm is implied.

Note absorption maximum for the molecule shown: `CC(C)(C)c1ccc2c(c1)c1cc(C(C)(C)C)ccc1n2-c1ccc(N(c2ccc(-c3ccc4c(c3)C(C)(C)c3cc(-c5ccc(N(c6ccc(-n7c8ccc(C(C)(C)C)cc8c8cc(C(C)(C)C)ccc87)cc6)c6ccc(-n7c8ccc(C(C)(C)C)cc8c8cc(C(C)(C)C)ccc87)cc6)cc5)ccc3-4)cc2)c2ccc(-n3c4ccc(C(C)(C)C)cc4c4cc(C(C)(C)C)ccc43)cc2)cc1` 373

Note absorption maximum for the molecule shown: `CC(=O)c1nc(-c2ccc(N(c3ccccc3)c3ccccc3)cc2)oc1C` 328

Note absorption maximum for the molecule shown: C=CC1CN2CCC1CC2[C@@H](OCc1ccccc1)c1ccnc2ccc(O)cc12 (some centres undefined) 334

Note absorption maximum for the molecule shown: `c1ccc(N(c2ccccc2)c2ccc(-c3ccc4c(c3)C3(c5ccccc5Oc5ccccc53)c3cc(-c5ccc(N(c6ccccc6)c6ccccc6)cc5)ccc3-4)cc2)cc1` 372

Note absorption maximum for the molecule shown: `N#Cc1cc(-n2c3ccccc3c3ccccc32)c(-n2c3ccccc3c3ccccc32)cc1C#N` 364

Note absorption maximum for the molecule shown: `c1ccc(-n2nc(-c3ccc(N4c5ccccc5Sc5ccccc54)cc3)nc2-c2ccccn2)cc1` 329

Note absorption maximum for the molecule shown: `Nc1ccc2c(c1)Cc1ccccc1-2` 319

Note absorption maximum for the molecule shown: O=C1c2ccccc2C(=O)C1C1C(=O)c2c3ccccc3cc3cc4ccccc4c1c23 (centres undefined) 505.72

Note absorption maximum for the molecule shown: `CC1=[N+]2C(=C(c3c4ccccc4cc4ccccc34)c3ccc(C)n3[B-]2(F)F)C=C1` 518

Note absorption maximum for the molecule shown: `C[Si](C)(C)c1ccc(-c2nc3ccccc3n2-c2ccccc2)cc1` 301

Note absorption maximum for the molecule shown: `N#Cc1ccc(-n2c(-c3ccc(-c4ccc(N(c5ccccc5)c5ccccc5)cc4)s3)nc3c4ccccc4c4ccccc4c32)c2ccccc12` 308

Note absorption maximum for the molecule shown: `CCCCOc1ccc(/C=C/C=C/C=C/c2ccc([N+](=O)[O-])cc2)cc1` 421

Note absorption maximum for the molecule shown: `Cc1ccc([C@@H]2C[C@](O)(c3ccccn3)C[C@](O)(c3ccccn3)[C@H]2C(=O)c2ccc(N(c3ccccc3)c3ccccc3)cc2)cc1` 372

Note absorption maximum for the molecule shown: `c1ccc(-c2nc(-c3c4ccccc4cc4ccccc34)n3ccccc23)cc1` 382

Note absorption maximum for the molecule shown: `CC(C)[Si](C#Cc1c2cc3ccccc3cc2c(C#C[Si](C)(C)C)c2cc3ccccc3cc12)(C(C)C)C(C)C` 642

Note absorption maximum for the molecule shown: `CCn1c2cc(C(C)(C)C)ccc2c2c3nsnc3c3c4ccc(C(C)(C)C)cc4n(CC)c3c21` 430

Note absorption maximum for the molecule shown: `CCN1c2ccccc2Sc2cc(/C=C(\C#N)c3ccccc3)ccc21` 413

Note absorption maximum for the molecule shown: `CC(C)(C)c1cc(C#Cc2ccc3c(C#Cc4cc(C(C)(C)C)cc(C(C)(C)C)c4)cc4c5cc(C#Cc6cc(C(C)(C)C)cc(C(C)(C)C)c6)ccc5c(C#Cc5cc(C(C)(C)C)cc(C(C)(C)C)c5)cc4c3c2)cc(C(C)(C)C)c1` 416

Note absorption maximum for the molecule shown: `c1ccc(N(c2ccccc2)c2ccc(-c3cccc4nc5ccccc5cc34)cc2)cc1` 396

Note absorption maximum for the molecule shown: `CCCCOc1c(OC)cc2cc(OC)c(OCCCC)c3c4c(OCCCC)c(OC)cc5cc(OC)c(OCCCC)c(c1c23)c54` 451

Note absorption maximum for the molecule shown: c1ccc(N(c2ccccc2)c2ccc3c(c2)-c2ccccc2C32c3ccccc3-n3c4ccccc4c4cccc2c43)cc1 (centres undefined) 354

Note absorption maximum for the molecule shown: `Clc1ccc(/C=C/c2ccncn2)cc1` 310

Note absorption maximum for the molecule shown: `CCCN1c2ccccc2Sc2cc(C#CC3=C4C=CC=[N+]4[B-](F)(F)n4cccc43)ccc21` 540

Note absorption maximum for the molecule shown: `c1ccc(-c2nc(-c3cccc4ccccc34)n3ccccc23)cc1` 357

Note absorption maximum for the molecule shown: c1ccc(N2N=C(c3cccc4ccccc34)CC2c2ccc3ccc4cccc5ccc2c3c45)cc1 (centres undefined) 391

Note absorption maximum for the molecule shown: CN(C)c1ccc(C2=Cc3ccccc3P2(=O)c2ccccc2)cc1 (centres undefined) 413

Note absorption maximum for the molecule shown: `COc1cccc2cc(C#N)c(=N)oc12` 364

Note absorption maximum for the molecule shown: `CC1=C(c2cccs2)C(C)=[N+]2C1=C(c1ccccc1)c1c(C)c(-c3cccs3)c(C)n1[B-]2(F)F` 527

Note absorption maximum for the molecule shown: `CC(=O)c1c2c(cc3cc(N(C)C)ccc13)CCC2` 372

Note absorption maximum for the molecule shown: `COc1cc(-c2nc3c4cccnc4c4ncccc4c3[nH]2)c(OC)cc1/C=C/c1nc2ccccc2[nH]1` 400

Note absorption maximum for the molecule shown: `CCB1c2ccccc2Nc2ccccc21` 381

Note absorption maximum for the molecule shown: `CCCCn1c2ccccc2c2ccc(C#Cc3ccc4ccc5cccc6ccc3c4c56)cc21` 404

Note absorption maximum for the molecule shown: `CC1=C(c2ccccc2)C(C)=[N+]2C1=C(c1c(-c3ccccn3)nc3ccccn13)c1c(C)cc(C)n1[B-]2(F)F` 532

Note absorption maximum for the molecule shown: `COc1ccc2ccccc2c1C1=CC(c2ccccc2)=C(c2ccccc2)C1` 340
